# TARGET UNDER TEST: T1, human C-MET on stably transfected CHO-K1 cells (human, UniProt P08581 25-1390)
# T1 construct: also called hucMET; human C-MET+ CHO-K1 cells
# T1 sequence (P08581 25-1390 limits assumed): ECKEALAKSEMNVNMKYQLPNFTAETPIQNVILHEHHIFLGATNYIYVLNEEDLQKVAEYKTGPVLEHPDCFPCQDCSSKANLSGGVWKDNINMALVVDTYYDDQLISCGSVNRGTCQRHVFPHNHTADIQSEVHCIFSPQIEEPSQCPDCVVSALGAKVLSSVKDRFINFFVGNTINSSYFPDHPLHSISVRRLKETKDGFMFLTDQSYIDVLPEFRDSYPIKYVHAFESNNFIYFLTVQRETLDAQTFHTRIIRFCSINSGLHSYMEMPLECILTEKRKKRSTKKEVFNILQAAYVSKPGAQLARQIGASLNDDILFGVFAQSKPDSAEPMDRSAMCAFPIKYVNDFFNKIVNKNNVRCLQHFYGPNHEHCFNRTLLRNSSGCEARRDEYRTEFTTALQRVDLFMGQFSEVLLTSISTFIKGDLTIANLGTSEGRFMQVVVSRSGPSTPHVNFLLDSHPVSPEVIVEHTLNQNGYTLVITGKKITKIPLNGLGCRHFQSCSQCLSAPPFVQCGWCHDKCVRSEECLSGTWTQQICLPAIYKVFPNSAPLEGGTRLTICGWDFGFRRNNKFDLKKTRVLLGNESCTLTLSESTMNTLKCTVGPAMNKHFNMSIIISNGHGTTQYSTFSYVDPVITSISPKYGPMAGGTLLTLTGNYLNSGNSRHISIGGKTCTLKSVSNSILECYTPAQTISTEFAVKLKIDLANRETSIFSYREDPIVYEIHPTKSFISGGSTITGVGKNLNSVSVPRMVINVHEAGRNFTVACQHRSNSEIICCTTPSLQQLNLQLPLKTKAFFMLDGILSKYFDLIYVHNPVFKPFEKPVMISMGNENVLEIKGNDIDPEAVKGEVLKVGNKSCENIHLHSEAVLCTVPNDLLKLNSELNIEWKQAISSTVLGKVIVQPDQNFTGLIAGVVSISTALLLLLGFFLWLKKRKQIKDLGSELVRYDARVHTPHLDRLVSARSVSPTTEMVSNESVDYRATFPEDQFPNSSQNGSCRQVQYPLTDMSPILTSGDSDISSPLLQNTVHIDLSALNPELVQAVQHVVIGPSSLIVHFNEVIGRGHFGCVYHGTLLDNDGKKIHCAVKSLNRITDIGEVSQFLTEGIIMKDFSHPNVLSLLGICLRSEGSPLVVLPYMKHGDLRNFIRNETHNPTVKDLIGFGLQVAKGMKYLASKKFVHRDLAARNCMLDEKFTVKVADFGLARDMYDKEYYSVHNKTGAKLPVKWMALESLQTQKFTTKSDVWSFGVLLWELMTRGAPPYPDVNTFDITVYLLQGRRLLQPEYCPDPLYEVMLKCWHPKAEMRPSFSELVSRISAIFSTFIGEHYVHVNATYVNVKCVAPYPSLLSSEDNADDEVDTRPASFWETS
# TEST SUMMARY: flow cytometry, C-MET CHO-K1 cells
In plain terms, low EC50, meaning strictly below 10 nM, gives 1 (yes), and everything else gives 0 (no).

- BINDER: "MH12 (antibody, IgG4, V domains shown) VH: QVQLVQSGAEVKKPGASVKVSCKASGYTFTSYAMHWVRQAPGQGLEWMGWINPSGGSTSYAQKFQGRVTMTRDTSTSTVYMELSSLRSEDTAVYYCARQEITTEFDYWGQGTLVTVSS VL: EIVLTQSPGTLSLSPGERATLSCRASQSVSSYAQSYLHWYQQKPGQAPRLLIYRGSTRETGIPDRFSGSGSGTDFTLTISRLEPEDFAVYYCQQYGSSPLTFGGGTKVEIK"
  CATEGORY LABEL: "1 (yes)"
- BINDER: "07C10 (antibody, IgG4, V domains shown) VH: QVQLVQSGAEVKKPGASVKVSCKASGYIFTAYSMHWVRQAPGQGLEWMGIIKPSNGSTNYAQKFQGRVTMTRDTSTSTVYMELSSLRSEDTAVYYCARAEITTEFDYWGQGTLVTVSS VL: EIVLTQSPGTLSLSPGERATLSCRASQSVESYAQSYLHWYQQKPGQAPRLLIYRGSTRESGIPDRFSGSGSGTDFTLTISRLEPEDFAVYYCQQSKEEPLTFGGGTKVEIK"
  CATEGORY LABEL: "1 (yes)"
- BINDER: "MH10 (antibody, IgG4, V domains shown) VH: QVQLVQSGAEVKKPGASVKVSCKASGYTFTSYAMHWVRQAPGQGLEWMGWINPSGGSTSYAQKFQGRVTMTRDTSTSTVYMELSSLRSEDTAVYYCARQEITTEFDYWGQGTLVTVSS VL: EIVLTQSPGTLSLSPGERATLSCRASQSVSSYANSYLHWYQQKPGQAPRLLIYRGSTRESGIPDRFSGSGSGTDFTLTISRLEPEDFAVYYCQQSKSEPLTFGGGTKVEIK"
  CATEGORY LABEL: "1 (yes)"
- BINDER: "09B08 (antibody, IgG4, V domains shown) VH: QVQLVQSGAEVKKPGASVKVSCKASGYTFTSYTMHWVRQAPGQGLEWMGWINPNNGSTNYAQKFQGRVTMTRDTSTSTVYMELSSLRSEDTAVYYCARSEITTDFDYWGQGTLVTVSS VL: EIVLTQSPGTLSLSPGERATLSCRASQSVSSYANSYLHWYQQKPGQAPRLLIYRGSTRESGIPDRFSGSGSGTDFTLTISRLEPEDFAVYYCQQSKSDPLTFGGGTKVEIK"
  CATEGORY LABEL: "1 (yes)"
- BINDER: "04F09 (antibody, IgG4, V domains shown) VH: QVQLVQSGAEVKKPGASVKVSCKASGYIFTSYSMHWVRQAPGQGLEWMGWINPSNGLANYAQKFQGRVTMTRDTSTSTVYMELSSLRSEDTAVYYCARQEITTEFDIWGQGTLVTVSS VL: EIVLTQSPGTLSLSPGERATLSCRASQSVESYAQSYLHWYQQKPGQAPRLLIYRGSTRESGIPDRFSGSGSGTDFTLTISRLEPEDFAVYYCQQSKSDPLTFGGGTKVEIK"
  CATEGORY LABEL: "0 (no)"
